# Target Entity: Pantothenate synthetase (Mycobacterium tuberculosis (strain ATCC 25618 / H37Rv))
# Method Description: Coupled enzyme confirmation of inhibitors against recombinant Mtb PanC (AID 375);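 further: 0% = full reaction with vehicle and 100% = no enzyme background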
# Experimental Setup: coupled enzyme assay; at 10 µM, active compounds read high
Kindly supply the reported inhibition values for the records listed here.
Answers are plain numbers, in %.

{"Compound": "Cc1cc(C)nc(NS(=O)(=O)c2ccc(NC(=O)Cn3c(=O)oc4ccccc43)cc2)n1", "Meas Value": 1}
{"Compound": "CCOc1ccccc1NC(=O)CC1Nc2cc(C)c(C)cc2NC1=O (configuration not stated)", "Meas Value": 0}
{"Compound": "CN1C[C@H](CNC(=O)OCc2ccccc2)C[C@@H]2c3cccc4c3c(cn4C)C[C@H]21", "Meas Value": 4}

Here are 5 compounds. What values of inhibition were reported for them?
1. CC(C)C(c1nnnn1C1CCCC1)N1CCN(C(=O)c2ccco2)CC1 (configuration not stated)
2. Cc1sc2ncn3ncnc3c2c1C
3. CSc1ccccc1N=CC1=C(O)CC(C)(C)CC1=O
4. CC1(C)C(=O)Nc2ccccc2N1C(=O)COC(=O)Cn1cnc2ccccc2c1=O
5. CCc1nc2sc(C)c(C)c2c(=O)n1CCO

Result:
1: 3; 2: 0; 3: 0; 4: 0; 5: 7

// input: 2 compounds below; output: inhibition for each
1. Cc1ccccc1Nc1cc2ccccc2c(=O)[nH]1
2. CO[C@@]1(NC(=O)CSCC#N)C(=O)N2C(C(=O)O)=C(CSc3nnnn3C)CS[C@@H]21

Result:
2
0

List reported inhibition for each of these compounds:
1. O=S(=O)(c1ccc(OCC(O)CN2CCN(c3ccccc3)CC2)cc1)N1CCOCC1 (configuration not stated)
2. O=C(NCCN1CCN(c2ccccc2)CC1)c1ccc(NC(=O)C2CCCO2)cc1 (configuration not stated)
3. CC1=C/C(=C/N(C)c2ccccc2)C(=O)S1
4. CCN(CC)S(=O)(=O)c1ccc(N2CCCC2)c(C(=O)OCC(=O)/C(C#N)=C(\C)N)c1
5. CCOC(=O)C1=C(c2ccccc2)NC(=O)NC1c1ccc(N(C)C)cc1 (configuration not stated)
6. COc1ccc(-c2noc(CN3CCC(Cc4ccccc4)CC3)n2)cc1
7. CCn1c(NC(=O)c2cccc(Cn3cc(Cl)cn3)c2)nc2ccccc21

Result:
[7, 2, 1, 6, 0, 0, 0]

Provide inhibition values for the following items, in order.
1. CC(C)Cn1c(=O)c(C(=O)NCc2ccccn2)c(O)c2ccccc21
2. CCN(CCNC(=O)CS(=O)(=O)Cc1nc(-c2cccc(OC)c2)oc1C)c1ccccc1
3. Cc1ccccc1-n1c(=O)cc(NCc2ccc3c(c2)OCO3)[nH]c1=O
4. COC(=O)CNC(=O)c1c(C)cc(=O)oc1C
5. C1=CC2CC1CC2CN1CCN(c2ccccc2)CC1 (configuration not stated)

Result:
[0, 0, 2, 3, 5]
